Target: Acetylcholinesterase (Homo sapiens)
Assay: Acetylcholinesterase (AChE) small molecule antagonists: fluorescence cell-based qHTS assay (AID 1347398); further: nearly all actives have a fitted effect of over 50% in size
Conditions: SH-SY5Y cells; AChE activity; series mostly up to 115 µM
Inconclusive results are not listed. Activity calls are given as the source filed them. The call rests on the fitted dose curve.
Returns: one label drawn from active, inactive

For orientation, consider the following solved cases.
> print(dat)
                                   molecule  group.label
 1                               c1nc[nH]n1     inactive
 2      Brc1ccc(Oc2cc(Br)c(Br)cc2Br)c(Br)c1     inactive
 3                  Cc1cc(Cl)ccc1OCCCC(=O)O     inactive
 4                               NCc1cccnc1     inactive
 5                  CN(C)C(=O)Nc1ccc(Cl)cc1     inactive
 6           CCCCCCCCC(=O)NCc1ccc(O)c(OC)c1     inactive
 7                         O=C(CCl)c1ccccc1     inactive
 8                        CC(C)c1ccc(CO)cc1     inactive
 9  CCCCC(CC)COC(=O)Cl (stereo unspecified)     inactive
10                    Cc1ccccc1[N+](=O)[O-]     inactive

In: Check the results log: what was the call for CCOP(=S)(OCC)O/N=C(\C#N)c1ccccc1 ?
Out: active
